# Tested on: Escherichia coli TOP10;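 further: peptides expressed intracellularly from a pBAD plasmid library in pooled LB shake-flask culture, induced with 0.3% L-arabinose, DNA abundance read by NGS, three biological replicates, DESeq2 with apeglm shrinkage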
# EXPERIMENT: shrunken log2 fold change of peptide-encoding DNA abundance (4.5 h post-induction vs induction); higher = less antimicrobial activity (less host growth inhibition)
# MEASUREMENT SETUP: time post-induction: 4.5 h; library: site-saturation at positions 5, 18, 19, 20
The threshold is inclusive: shrunken log2 fold change of exactly 0.2 counts as yes (1); values below receive no (0).

RRIRTRPPRLPRPRPRPKYAPRP : no (0)
RRIRMRPPRLPRPRPRPILTPRP : no (0)
RRIRMRPPRLPRPRPRPTAEPRP : yes (1)

Is shrunken log2 fold change at least 0.2? Consider RRIRIRPPRLPRPRPRPWDLPRP no (0)

Is shrunken log2 fold change at least 0.2? Consider RRIRMRPPRLPRPRPRPLEIPRP no (0)

Is shrunken log2 fold change at least 0.2? Consider RRIRVRPPRLPRPRPRPHPTPRP yes (1)

Is shrunken log2 fold change at least 0.2? Consider RRIRFRPPRLPRPRPRPKVWPRP no (0)

Is shrunken log2 fold change at least 0.2? Consider RRIRSRPPRLPRPRPRPVYRPRP no (0)
